These measurements were taken from the supplement of paper PMC10567573.

B1: GLTSCR2 (parent)
chain: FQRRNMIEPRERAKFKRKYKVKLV

# Variants of: B1
# ASSAY INFO: protein stability index of a GFP-peptide fusion (GPS, HEK-293T) (PSI 1-6); higher = more stable;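 further: lentivirally expressed fusions sorted by FACS into six bins by GFP to DsRed ratio, PSI derived from sequencing read proportions per bin multiplied by bin number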
# ASSAY CONDITIONS: c terminus: a fixed tail appended
QUANTITY MEASURED: protein stability index
// return just the number, without any unit appended

Any idea what protein stability index was measured for `R12C` ? 2

Likewise for `K22C` ? 1.51

Likewise for `Q2C` ? 1.99

Likewise for `R4S` ? 2.35

Likewise for `I7S` ? 3.04

Likewise for `E11Y` ? 1.91

Likewise for `K16Q` ? 1.87

Likewise for `Y19S` ? 2.88

Likewise for `E8M` ? 2.34

Likewise for `K14L` ? 1.82

Likewise for `R17M` ? 2.94

Likewise for `L23G` ? 3.17

Likewise for `E11W` ? 2.81

Likewise for `P9D` ? 2.15

Likewise for `Y19K` ? 3.86

Likewise for `K18P` ? 1.92

Likewise for `M6P` ? 2.25
